experiment: Single concentration cytotoxicity against HEK293; conditions: human
Metric name: viability at 24 h, 50 µM (%)
Numeric only. Scale: %

Incoming: Which viability at 24 h, 50 µM is listed for O=C(N[C@H](Cc1ccccc1)C(=O)Nc1ccccc1N1CCS(=O)(=O)CC1)c1ccccc1F [compound 2] ?
Outgoing: 73
